In this section, each of the sequences is paired with its reported SH2 binding enrichment.
- target_desc: Grb2 SH2 (UniProt P62993)
- Sequence (P62993 whole entry, looked up, the tested form may be a part): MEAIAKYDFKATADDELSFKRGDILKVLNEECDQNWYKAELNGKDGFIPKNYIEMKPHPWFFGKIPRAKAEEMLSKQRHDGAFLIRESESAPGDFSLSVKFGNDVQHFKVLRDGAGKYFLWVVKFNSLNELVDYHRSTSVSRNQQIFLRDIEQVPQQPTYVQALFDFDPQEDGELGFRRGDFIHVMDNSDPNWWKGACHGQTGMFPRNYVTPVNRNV
- assay: SH2 binding enrichment of the phosphorylated peptide, bacterial display (enrichment ratio); higher = better substrate or ligand; peptides without Tyr show the background;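 also: peptide library displayed on the E. coli surface as eCPX fusions, selected cells deep-sequenced, score is each peptide's frequency after selection divided by its frequency in the input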

residues: SSWPGYVRPLP [HSPB1_Y54]
SH2 binding enrichment: 0.97
//
residues: VHNLNYYKKTT [FGFR3_Y647_D646N]
SH2 binding enrichment: 1.04
//
residues: VCRHNYGVVES [HLA-DRB1_Y112_Y107V]
SH2 binding enrichment: 0.828
//
residues: EGTATYAAAVL [JUP_Y644]
SH2 binding enrichment: 0.847
//
residues: FFDANCDGKEF [MAPRE2_Y162_Y162C_YF]
SH2 binding enrichment: 0.687
//
residues: SRVNKYSTAFG [GJB3_Y16_G12R]
SH2 binding enrichment: 1.02
//
residues: VMICAYLLHRG [PTEN_Y138]
SH2 binding enrichment: 1.05
//
residues: SENYTYIWWLN [PSG4_Y271_K267E]
SH2 binding enrichment: 0.694
//
residues: QKMLDYLKEKK [RYR2_Y3780]
SH2 binding enrichment: 1.09
//
residues: PSSNLYFRWLT [CNGA3_Y168_YF]
SH2 binding enrichment: 1.41
//
residues: MNLLGYRHVRS [CHST4_Y359]
SH2 binding enrichment: 0.855
//
residues: RLLVVYPWTQR [HBB_Y36]
SH2 binding enrichment: 1.99
//
residues: KDFNKYVAYIE [KDM4B_Y31]
SH2 binding enrichment: 0.83
//
residues: CSRCFYQLTKL [AR_Y858_R856C]
SH2 binding enrichment: 1.24
